assay-method-text: Confirmation Concentration-Response Assay for Anthrax Lethal Toxin Internalization
condition: FRET ratio (460/530 nm); series mostly up to 46.1 µM
Results filed as inconclusive are left out. Activity calls are given as the source filed them. Calls follow the shape of the full dose curve.
Outcomes you can answer with include only these: Yes (active), No (inactive)

Req: GET /call?item= COc1ccc(C2C3=C(COC3=O)Oc3cc4c(cc32)OCO4)cc1OC (stereo unspecified) returns the recorded outcome of this test.
Resp: No

Req: Recorded test outcome, item Cc1ccc2oc(=O)c3cnn(CC(=O)Nc4ccccc4N4CCN(C)CC4)c3c2c1
Resp: Yes

Further cases:
Req: In this assay, the call recorded for COc1cc2c(OC(C)=O)c3c(c(-c4ccc5c(c4)OCO5)c2cc1OC)C(=O)OC3 was what?
Resp: Yes

Req: Can you look up the reported call for COc1cc([C@@H]2c3cc4c(cc3[C@H](OC(C)=O)[C@H]3COC(=O)[C@H]23)OCO4)cc(OC)c1OC for me?
Resp: Yes

* * *

assay-method-text: Confirmation Concentration-Response Assay for Anthrax Lethal Toxin Internalization
condition: FRET ratio (460/530 nm); series mostly up to 46.1 µM
Records with an inconclusive call do not appear. Activity calls are given as the source filed them. Calls come from the whole dose curve.
Just give me one of these, please: true (1) (active), false (0) (inactive)

Req: // return assay outcome for Cc1ccc2c(c1)-c1c(cnn1CC(=O)Nc1ccccc1N1CCN(C)CC1)CO2
Resp: true (1)

Req: // return assay outcome for COc1ccc2c(c1OC)C(=O)OC2CC(=O)c1ccc2c(c1)OCO2 (configuration not stated)
Resp: false (0)

Req: Which outcome was assigned to COc1cc2c(O)c3c(c(-c4ccc5c(c4)OCO5)c2cc1OC)C(=O)OC3 in this test?
Resp: true (1)

Req: Fill in: this test's call for O=C(Nc1c(Cl)cc([N+](=O)[O-])cc1Cl)c1cc(Cl)cc(Cl)c1O is ___
Resp: true (1)

Req: Test call for this molecule, please: COc1ccc2c(c1OC)C(=O)OC2c1ccc(O)cc1 (configuration not stated)
Resp: false (0)

Req: Dear all, I need the recorded test outcome for COc1cc([C@@H]2c3cc4c(cc3[C@H](O)[C@H]3COC(=O)[C@H]23)OCO4)cc(OC)c1OC , thank you.
Resp: true (1)

Continuing:
Req: What outcome does the record of this test show for Nc1ccc(NC(=O)c2cc(Cl)ccc2O)c(Cl)c1 ?
Resp: false (0)
